Provide the recorded r1 human plasma for the entries that follow.
# Assay details: Relaxivity measurements at 1.41 T in human plasma
# Assay type: physicochemical
# Experimental setup: 37° C., normalized to Gd
// units = L/mmol/s; emit number, no label

Kindly note the recorded r1 human plasma for CCOCCOCCOCCOc1ccc(C[C@@H](C(=O)O)N2CCN(CC(=O)[O-])CCN(CC(=O)[O-])CCN(CC(=O)[O-])CC2)cc1.[Gd+3] , which is 6.3

Kindly note the recorded r1 human plasma for CCCCOc1ccc(CCC[C@@H](C(=O)O)N2CCN(CC(=O)[O-])CCN(CC(=O)[O-])CCN(CC(=O)[O-])CC2)cc1.[Gd+3] , which is 15.8

Kindly note the recorded r1 human plasma for CCOCCOCCOc1ccc(CCC[C@@H](C(=O)O)N2CCN(C(CCO)C(=O)[O-])CCN(C(CCO)C(=O)[O-])CCN(C(CCO)C(=O)[O-])CC2)cc1.[Gd+3] (mixture of isomers) , which is 8.5
